# TEST_TARGET: K2P2.1 I110D (Mus musculus, UniProt P97438, I125D)
# Sequence (P97438 1-411 isoform P97438-2 I110D): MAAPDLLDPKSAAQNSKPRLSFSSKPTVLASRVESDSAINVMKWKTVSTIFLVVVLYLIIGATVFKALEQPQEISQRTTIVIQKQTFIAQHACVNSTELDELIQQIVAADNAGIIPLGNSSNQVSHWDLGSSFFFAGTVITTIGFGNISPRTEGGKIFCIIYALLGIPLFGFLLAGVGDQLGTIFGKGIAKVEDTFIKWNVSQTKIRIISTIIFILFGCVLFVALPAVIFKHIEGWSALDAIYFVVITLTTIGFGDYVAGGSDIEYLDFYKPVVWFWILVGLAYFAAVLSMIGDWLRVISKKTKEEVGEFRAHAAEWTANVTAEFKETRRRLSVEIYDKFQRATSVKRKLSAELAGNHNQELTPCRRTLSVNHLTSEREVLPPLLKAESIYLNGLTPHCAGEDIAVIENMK
# ASSAY_EXPLANATION: TEVC recordings in Xenopus oocytes, K2P2.1 I110D
# CONDITION_INFO: read-out: EC50 (ML335) activation, TEVC
RESULT_TYPE: EC50 (µM)

- COMPOUND: "CS(=O)(=O)Nc1ccc(C(=O)NCc2ccc(Cl)cc2Cl)cc1 [ML335]"
  TEST_TARGET: "K2P2.1 I110D (Mus musculus, UniProt P97438, I125D)"
  RESULT_TYPE: "EC50"
  RESULT_UNIT: "µM"
  REPORTED_RESULT: 11.8
